Data provenance is PubChem BioAssay (NCATS).

tested-target: Cytochrome P450 2C9 (Homo sapiens) (UniProt P11712)
Sequence (P11712 whole entry, looked up): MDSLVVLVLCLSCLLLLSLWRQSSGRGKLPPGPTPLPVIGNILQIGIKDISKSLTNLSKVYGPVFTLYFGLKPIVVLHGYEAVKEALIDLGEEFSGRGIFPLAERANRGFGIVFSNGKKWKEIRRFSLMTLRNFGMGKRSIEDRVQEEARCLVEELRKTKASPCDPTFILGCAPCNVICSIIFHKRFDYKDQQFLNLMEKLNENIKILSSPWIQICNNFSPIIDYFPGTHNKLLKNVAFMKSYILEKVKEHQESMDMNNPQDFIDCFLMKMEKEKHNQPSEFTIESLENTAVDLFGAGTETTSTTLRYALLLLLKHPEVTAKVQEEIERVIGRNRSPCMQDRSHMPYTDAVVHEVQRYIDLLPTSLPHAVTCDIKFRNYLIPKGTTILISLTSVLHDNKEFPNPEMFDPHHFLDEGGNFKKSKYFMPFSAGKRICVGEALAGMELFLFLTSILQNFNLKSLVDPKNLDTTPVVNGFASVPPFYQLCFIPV
assay-name: Cytochrome P450 family 2 subfamily C member 9 (CYP2C9) small molecule antagonists: luciferase biochemical (cell-free) qHTS assay (AID 1645842); also: nearly all actives have a fitted effect of over 55% in size; also: potency is read from the fitted curve at half-maximal effect
condition-context: P450-Glo CYP2C9 enzyme assay, luciferin luminescence; series mostly up to 57.4 µM
Inconclusive results are not listed. Activity calls are given as the source filed them. Calls follow the shape of the dose curve; as a rule, active = well fitted inhibition curve with a large enough effect in the repeat runs; inconclusive = weak or mixed curves; inactive = no such curve, though single readings can be large or run the other way.
observed-property: Potency

CN(C)c1ccc(N=NS(=O)(=O)O)cc1 = 0.728 µM (active)
CN(C)CCn1nnnc1SCC1=C(C(=O)O)N2C(=O)[C@@H](NC(=O)Cc3csc(N)n3)[C@H]2SC1 = inactive
CCCCCCOc1ccccc1C(N)=O = 8.71 µM (active)
CC(C)OC(=O)c1cc(C(=O)OC(C)C)cc([N+](=O)[O-])c1 = 0.748 µM (active)
COc1ccc(-c2cc(=S)ss2)cc1 = 11 µM (active)
NS(=O)(=O)c1ccc(-n2nc(C(F)(F)F)cc2-c2ccc(Cl)cc2)cc1 = 10.7 µM (active)

stdin: # get_value(readout='Potency', item= "Cc1ccc(O)c(-n2nc3ccccc3n2)c1" )
stdout: 4.36 µM (active)

stdin: # get_value(readout='Potency', item= "O=C(Nc1ccc2c(c1)CCN(Cc1ncn[nH]1)C2)c1ccccc1-c1ccc(C(F)(F)F)cc1" )
stdout: 10.7 µM (active)

stdin: # get_value(readout='Potency', item= "O=[N+]([O-])c1ccc(CNc2nc(NCc3cccc(C(F)(F)F)c3)nc3nc[nH]c23)cc1" )
stdout: 1.07 µM (active)

stdin: # get_value(readout='Potency', item= "COc1cc2c3cc1Oc1cc(ccc1O)C[C@@H]1c4c(cc(OC)c(O)c4Oc4ccc(cc4)C[C@@H]3N(C)CC2)CC[N+]1(C)C" )
stdout: inactive

stdin: # get_value(readout='Potency', item= "O=Cc1ccc(O)c(O)c1O" )
stdout: inactive

====

tested-target: Cytochrome P450 2D6 (Homo sapiens) (UniProt P10635)
Sequence (P10635 whole entry, looked up): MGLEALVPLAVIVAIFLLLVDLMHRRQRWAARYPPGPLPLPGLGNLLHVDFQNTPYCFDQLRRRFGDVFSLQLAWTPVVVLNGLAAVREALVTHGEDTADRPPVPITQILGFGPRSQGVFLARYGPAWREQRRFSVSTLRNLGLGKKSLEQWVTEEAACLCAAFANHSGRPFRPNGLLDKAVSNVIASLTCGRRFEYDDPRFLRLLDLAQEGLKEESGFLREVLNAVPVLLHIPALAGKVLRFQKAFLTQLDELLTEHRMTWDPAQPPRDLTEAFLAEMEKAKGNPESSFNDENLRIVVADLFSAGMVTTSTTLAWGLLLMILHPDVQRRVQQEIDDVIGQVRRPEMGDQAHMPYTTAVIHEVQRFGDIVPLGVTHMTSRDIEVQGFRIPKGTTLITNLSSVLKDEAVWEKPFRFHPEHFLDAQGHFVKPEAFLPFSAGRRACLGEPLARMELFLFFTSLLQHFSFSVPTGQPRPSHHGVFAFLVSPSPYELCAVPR
assay-name: qHTS Assay for Inhibitors and Substrates of Cytochrome P450 2D6 (AID 891); also: nearly all actives have a fitted effect of over 60% in size
condition-context: recombinant CYP2D6, luciferin-ME EGE luminescence; series mostly up to 57.1 µM
Results filed as inconclusive are left out. Activity calls are given as the source filed them. The call rests on the fitted dose curve; in most records, active means well fitted inhibition curve with a large enough effect; inconclusive means small, poorly fitted or top-dose-only effect; inactive means no such curve, though single readings can be large or run the other way.
Select the matching outcome among active, inactive

Use these answered entries as a reference point.
CCCCN1CCC(n2c(=O)[nH]c3ccccc32)CC1 = active
c1cnc2c(c1)ccc1cccnc12 = inactive

Now let's try a different one.
stdin: Field: outcome | Entry: "O=C(Nc1ccccc1)c1cc([N+](=O)[O-])ccc1Cl"
stdout: inactive

====

Test system: HeLa
assay-name: Primary qHTS to identify gynecologic anti-cancer compounds using libraries of approved drugs and bioactive compounds (AID 1345084); also: nearly all actives have a fitted effect of over 55% in size
condition-context: Gynecologic cancer cell panel viability, ATPlite luminescence, 48 h; series mostly up to 57.5 µM
Inconclusive results are not listed. The source made the active and inactive calls. The call rests on the fitted dose curve; in most records, active means well fitted cell-killing curve with a large enough effect; inconclusive means small, poorly fitted or top-dose-only effect, or effect the other way; inactive means flat fitted curve, though single readings scatter.
observed-property: outcome

O=C(O)Cc1ccc2c(c1)C(=O)c1ccccc1CO2 = inactive
CC(=O)O[C@H]1C[C@@]2(C)[C@@H](C[C@@H](O)[C@H]3[C@@]4(C)CC[C@@H](O)[C@@H](C)[C@@H]4CC[C@@]32C)/C1=C(\CCC=C(C)C)C(=O)O = inactive
O=C(O)Cc1ccc(-c2ccccc2)cc1 = inactive

====

assay-name: qHTS to identify inhibitors of the type 1 interferon - major histocompatibility complex class I in skeletal muscle: primary screen against the NCATS LOPAC collection (AID 1347405);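 also: human myoblasts with HiBiT tag on endogenous HLA-B stimulated by IFN-beta; lytic HiBiT luminescence reporting HLA-B protein level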
condition-context: iHSKM muscle cells, IFN-b-induced MHC-I HiBiT luminescence, 24 h; series mostly up to 45.9 µM
Records with an inconclusive call do not appear. Activity calls are given as the source filed them. The call rests on the fitted dose curve; in most records, active means well fitted inhibition curve with a large enough effect; inconclusive means small, poorly fitted or top-dose-only effect; inactive means flat fitted curve, though single readings scatter.
Select the matching outcome among 1.0 = active, 0.0 = inactive

stdin: Field: outcome | Entry: "O=C(Nc1ccncc1)c1cc([N+](=O)[O-])ccc1Cl"
stdout: 1.0

stdin: Field: outcome | Entry: "NC[C@H]1O[C@@H](n2cnc3c(N)ncnc32)[C@H](O)[C@@H]1O"
stdout: 0.0

stdin: Field: outcome | Entry: CC(C)CC(NP(=O)(O)O[C@@H]1O[C@@H](C)[C@H](O)[C@@H](O)[C@H]1O)C(=O)NC(Cc1c[nH]c2ccccc12)C(=O)O (stereo partly specified)
stdout: 0.0

stdin: Field: outcome | Entry: COc1cc(C(O)CO)ccc1OS(=O)(=O)O (stereo unspecified)
stdout: 0.0

stdin: Field: outcome | Entry: "OC[C@H]1O[C@@H](n2cnc3c(NC4CCCCC4)ncnc32)[C@H](O)[C@@H]1O"
stdout: 0.0

stdin: Field: outcome | Entry: "NCCCS(=O)(=O)O"
stdout: 0.0

====

Tested on: astro
assay-name: Drug repurposing screens with cells derived from glioblastoma tumor samples (AID 1345199); also: nearly all actives have a fitted effect of over 40% in size; also: potency is read from the fitted curve at half-maximal effect
condition-context: viability, ATP luminescence, 48 h; series mostly up to 45.9 µM
Records with an inconclusive call do not appear. Calls of active or inactive are those of the source. The call rests on the fitted dose curve; in most records, active means well fitted inhibition curve with a large enough effect; inconclusive means small, poorly fitted or top-dose-only effect; inactive means flat fitted curve, though single readings scatter.
observed-property: Potency

Record excerpt, results attached:
CC(=O)O[C@H]1C[C@@]2(C)[C@@H](C[C@@H](O)[C@H]3[C@@]4(C)CC[C@@H](O)[C@@H](C)[C@@H]4CC[C@@]32C)/C1=C(\CCC=C(C)C)C(=O)O = inactive
CO[C@H]1C[C@@H]2CC[C@@H](C)[C@@](O)(O2)C(=O)C(=O)N2CCCC[C@H]2C(=O)O[C@H]([C@H](C)C[C@@H]2CC[C@@H](O)[C@H](OC)C2)CC(=O)[C@H](C)C=C(C)[C@@H](O)[C@@H](OC)C(=O)[C@H](C)C[C@H](C)/C=C/C=CC=C1C = 35.5 µM (active)
COc1cc(NC(C)CCCN)c2ncccc2c1 (stereo unspecified) = inactive
O=C(/C=C/c1ccccc1)NCCO = inactive
CCCCCC[C@@H](O)C/C=C\CCCCCCCC(=O)O = inactive

Turning now to a further record.
stdin: # get_value(readout= Potency, system= astro) for "CN1[C@@H](CC(=O)c2ccccc2)CCC[C@H]1C[C@H](O)c1ccccc1"
stdout: inactive

====

assay-name: Cell Viability - SK-N-SH (AID 435);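 also: potency is read from the fitted curve at half-maximal effect; compound exposure lasted 40 h at 37 °C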
condition-context: SK-N-SH neuroblastoma cell viability qHTS
From the text: NIH Chemical Genomics Center [NCGC] NIH Molecular Libraries Screening Centers Network [MLSCN] National Institutes of Environmental Health Sciences [NIEHS] National Toxicology Program [NTP] We have developed a 1536-well cell-based assay for quantitative high throughput screening (qHTS) against a number of cell lines to determine in vitro cytotoxicity of small molecules. […] 8. Detection; Luminescence; Viewlux plate reader […]
Results filed as inconclusive are left out. Calls of active or inactive are those of the source. The call rests on the fitted dose curve.
Select the matching outcome among active, inactive

CC1(C)S[C@@H]2[C@H](NC(=O)[C@H](N)c3ccccc3)C(=O)N2[C@H]1C(=O)O = inactive

stdin: Field: outcome | Entry: "c1cnc2c(c1)ccc1cccnc12"
stdout: active

stdin: Field: outcome | Entry: "NCCO"
stdout: inactive

stdin: Field: outcome | Entry: "N=C1N=C(N)c2cc3ccccc3cc21"
stdout: active

====

tested-target: Papain (Carica papaya) (UniProt P00784)
Sequence (P00784 whole entry, looked up): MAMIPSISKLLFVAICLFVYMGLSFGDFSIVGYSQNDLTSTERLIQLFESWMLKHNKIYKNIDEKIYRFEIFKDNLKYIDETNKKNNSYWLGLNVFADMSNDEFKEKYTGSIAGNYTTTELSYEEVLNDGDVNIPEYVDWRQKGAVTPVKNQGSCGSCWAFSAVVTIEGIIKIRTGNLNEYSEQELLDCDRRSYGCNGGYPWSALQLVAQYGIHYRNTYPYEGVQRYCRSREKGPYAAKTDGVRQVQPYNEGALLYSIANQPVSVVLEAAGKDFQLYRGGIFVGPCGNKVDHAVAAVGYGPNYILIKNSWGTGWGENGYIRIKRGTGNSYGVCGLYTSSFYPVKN
assay-name: Primary qHTS assay for inhibitors of the protease papain (AID 1645873);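 also: papain turnover of Z-FR-AMC read as the AMC fluorescence gain over 10 min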
condition-context: papain Z-FR-AMC cleavage, AMC fluorescence; series mostly up to 49.8 µM
Inconclusive results are not listed. Calls of active or inactive are those of the source. Calls follow the shape of the dose curve; as a rule, active = well fitted inhibition curve with a large enough effect; inconclusive = small, poorly fitted or top-dose-only effect; inactive = no such curve, though single readings can be large or run the other way.
Select the matching outcome among active, inactive

Use these answered entries as a reference point.
NC[C@@H]1O[C@H](C23CC4CC(CC(C4)C2)C3)Cc2c1ccc(O)c2O = inactive
OCC1O[C@H](O)C(Cl)C(O)C1O (stereo not given in full) = inactive
Nc1nc(Cl)nc2c1ncn2[C@@H]1O[C@H](COP(=O)(O)OP(=O)(O)OP(=O)(O)O)[C@@H](O)[C@H]1O = inactive
N.N.N.N.N.N.N.N.N.N.N.N.N.N.O.O.[Ru+4].[Ru+5].[Ru+5] = inactive
CCCCCCCCc1ccc(-c2ccc(C(=O)O)cc2)cc1 = inactive
NS(=O)(=O)c1ccc(-n2nc(C(F)(F)F)cc2-c2ccc(Cl)cc2)cc1 = inactive
CC(C)(C)c1ccc(S(=O)(=O)/C=C/C#N)cc1 = inactive
C[C@@H](CN1CCC(Cc2ccccc2)CC1)[C@@H](O)c1ccc(O)cc1 = inactive

stdin: Field: outcome | Entry: "Oc1cc(O)cc(/C=C/c2ccc(O)c(O)c2)c1"
stdout: active

stdin: Field: outcome | Entry: O=C(CCCCCN1CCN(c2ccccc2-c2ccccc2)CC1)NC1CCCc2ccccc21 (stereo not given)
stdout: inactive

stdin: Field: outcome | Entry: "O=[N+]([O-])c1ccc(CSc2ncnc3c2ncn3[C@@H]2O[C@H](CO)[C@@H](O)[C@H]2O)cc1"
stdout: inactive

stdin: Field: outcome | Entry: "O=C(O)c1cc(=O)c2c(Cl)cc(Cl)cc2[nH]1"
stdout: inactive

stdin: Field: outcome | Entry: "CC[C@H]1OC(=O)[C@H](C)[C@@H](O[C@H]2C[C@@](C)(OC)[C@@H](O)[C@H](C)O2)[C@H](C)[C@@H](O[C@@H]2O[C@H](C)C[C@H](NC)[C@H]2O)[C@](C)(O)C[C@@H](C)CN(C)[C@H](C)[C@@H](O)[C@]1(C)O"
stdout: inactive

stdin: Field: outcome | Entry: "O=C(O)c1cc([N+](=O)[O-])ccc1NCCCc1ccccc1"
stdout: inactive

stdin: Field: outcome | Entry: "CC(=O)SCC[N+](C)(C)C"
stdout: inactive
